# PROTOCOL_DESCRIPTION: Metabolic stability in rat plasma assessed as compound remaining after 120 mins
# Format: ADME, cell-free
# EXPERIMENTAL_CONDITIONS: read-out: Stability
ENDPOINT_LABEL: remaining at 2 h (%)
The response must be a number in % with no trailing unit.

Examples with answers:
What remaining at 2 h value was documented for this molecule, `CN1CCN(CCCOc2ccc(N3C(=O)/C(=C/c4ccc(Oc5ccc(Br)cc5)cc4)SC3=S)cc2)CC1` ?
72

Given `COc1ccc(Oc2ccc(/C=C3\SC(=S)N(c4ccc(OCCCN5CCN(C)CC5)cc4)C3=O)cc2)cc1` , state its recorded remaining at 2 h.
73

Continuing:
Suppose we examine the molecule `CN1CCN(CCCOc2ccc(N3C(=O)/C(=C/c4ccc(Oc5ccc(C(N)=O)cc5)cc4)SC3=S)cc2)CC1` ; what remaining at 2 h value has been reported?
58
